Where these numbers come from: patent US20250101041A1

experimental target: human mAChR M4 (Homo sapiens, UniProt P08173)
Construct: expressed in transfected cells; host or cells: CHO-K1 (American Type Culture Collection), stably expressing hM4 and Gqi5
protocol description: mAChR M4 cell-based functional assay: calcium mobilization (Fluo-4, FDSS), potentiation of EC20 acetylcholine response in hM4-Gqi5 CHO-K1 cells
condition parameters: CHO-K1, % ACh maximum at 30 μM; human M4
# reported Emax at 30 µM; entries follow
Response body: numeric value in %, unit text excluded.

For orientation, consider the following solved cases.
Given the entry Cc1cc(=O)n2nc(N3CCc4ncc(-n5cccn5)cc4C3)c(C)cc2n1 , what Emax at 30 µM was observed with human mAChR M4 (Homo sapiens, UniProt P08173)?
56

Moving on to the next molecule: Cc1cc(Cl)ncc1-c1cnc2c(c1)CN(c1nn3c(=O)ccnc3cc1C)CC2
69

Moving on to the next molecule: Cc1cc(=O)n2nc(N3CCc4ncc(-c5ccnn5C)cc4C3)c(C)cc2n1
85

# next molecule below
Given the entry Cc1cc(=O)n2nc(N3CCc4ncc(-c5cn6ccnc6cc5C)cc4C3)c(C)c(C)c2n1 , what Emax at 30 µM was observed with human mAChR M4 (Homo sapiens, UniProt P08173)?
62

====

experimental target: human mAChR M4 (Homo sapiens)
Sequence (P08173 1-479): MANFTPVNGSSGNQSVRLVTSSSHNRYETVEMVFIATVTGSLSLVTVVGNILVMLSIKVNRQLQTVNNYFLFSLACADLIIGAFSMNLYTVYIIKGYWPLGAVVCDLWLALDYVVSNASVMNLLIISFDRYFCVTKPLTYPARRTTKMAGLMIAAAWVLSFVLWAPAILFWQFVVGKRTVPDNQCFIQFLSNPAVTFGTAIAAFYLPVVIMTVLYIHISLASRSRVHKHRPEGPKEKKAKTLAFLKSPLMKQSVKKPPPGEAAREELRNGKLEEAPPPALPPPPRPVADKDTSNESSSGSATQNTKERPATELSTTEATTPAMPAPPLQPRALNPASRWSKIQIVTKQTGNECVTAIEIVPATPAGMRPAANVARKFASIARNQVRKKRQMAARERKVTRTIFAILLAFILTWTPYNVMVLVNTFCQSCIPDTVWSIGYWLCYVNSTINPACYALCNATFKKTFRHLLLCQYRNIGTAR
protocol description: mAChR M4 cell-based functional assay: calcium mobilization (Fluo-4, FDSS), potentiation of EC20 acetylcholine response in hM4-Gqi5 CHO-K1 cells
condition parameters: potentiation of EC20 acetylcholine response, calcium mobilization, human M4
# reported EC50; entries follow
Response body: numeric value in nM, unit text excluded.

For orientation, consider the following solved cases.
Name the reported EC50 value associated with the compound Cc1cc2nc(C)c(C)c(=O)n2nc1N1CCc2ncc(Nc3ccncc3F)cc2C1
1

Moving on to the next compound: Cc1c(N2CCc3ncc(C(F)(F)F)cc3C2)nn2c(=O)cc(C(C)C)nc2c1C
178

Moving on to the next compound: Cc1cc2nccc(=O)n2nc1N1CCc2ncc(-c3ccccc3C3CC3)cc2C1
380

***
Name the reported EC50 value associated with the compound Cc1cc(=O)n2nc(N3CCc4ncc(-c5cnn(CC(F)(F)F)c5)cc4C3)c(C)c(C)c2n1
1260

====

experimental target: human mAChR M4 (Homo sapiens)
Construct: expressed in transfected cells; host or cells: CHO-K1 (American Type Culture Collection), stably expressing hM4 and Gqi5
protocol description: mAChR M4 cell-based functional assay: calcium mobilization (Fluo-4, FDSS), potentiation of EC20 acetylcholine response in hM4-Gqi5 CHO-K1 cells
condition parameters: CHO-K1, % ACh maximum at 30 μM; human M4
Outcome label depends on Emax at 30 µM relative to 80%: at/above gives label 1, below gives label 0.

Please indicate if the recorded Emax at 30 µM for Cc1cc(=O)n2nc(N3CCc4ncc(-c5ccccc5Cl)cc4C3)c(C)cc2n1 meets or exceeds 80%.
label 0

Moving on to the next compound: Cc1cc2nccc(=O)n2nc1N1CCc2ncc(-c3cncc(F)c3C)cc2C1
label 0

Moving on to the next compound: Cc1c(N2CCc3ncc(-c4cnccc4Cl)cc3C2)nn2c(=O)ccnc2c1C
label 1

Moving on to the next compound: Cc1ccc(-c2cnc3c(c2)CN(c2nn4c(=O)cc(C)nc4c(C)c2C)CC3)c(C)c1
label 1

Moving on to the next compound: COc1c(F)cc(-c2cnc3c(c2)CN(c2nn4c(=O)ccnc4cc2C)CC3)c(C)c1F
label 1
